Reference source for all entries: PubChem BioAssay (NCI)

Tested on: HT29 colon
Experiment: NCI tumour cell line growth inhibition, 48 h
Listing of entries alongside the reported TGI.

Below, each entry is followed by its recorded TGI result.
compound=c1ccc2c3c([nH]c2c1)C1c2[nH]c4ccccc4c2CCN1CC3 measurement_label=TGI observed="26.7 µM"
compound="CCC1CC(=O)N(SCC(N)C(=O)O)C1=O (configuration not stated)" measurement_label=TGI observed="> 100 µM"
compound=C=C1Oc2nc3ccccc3c(=O)n2C1(C)C measurement_label=TGI observed="> 100 µM"
compound=CN(C)CCN=Cc1c2ccccc2c(=O)n2c1oc1ccccc12 measurement_label=TGI observed="19.4 µM"
compound=COC(=O)NN=C(c1ccc(Cl)cc1)c1ccc(Cl)cc1 measurement_label=TGI observed="> 100 µM"
compound=CC(C)CC(=O)NC(NC(C)C)(C(F)(F)F)C(F)(F)F measurement_label=TGI observed="> 100 µM"
compound="COc1ccc(N[C@H](CS(=O)c2ccc(C)cc2)C(F)(F)C(F)(F)F)cc1 (some centres not stated)" measurement_label=TGI observed="> 100 µM"
compound=O=C1Nc2ccccc2Nc2nc3cccccc-3c21 measurement_label=TGI observed="> 100 µM"

Shifting focus to the compound that follows.
Ask: What value of measured TGI is listed for Nc1nc(NNc2ccc(Cl)c(Cl)c2)cc(=O)[nH]1 ?
Reply: > 100 µM

###

Recorded TGI values for a group of compounds are listed next.
System: CCRF-CEM leukemia
Experiment: NCI tumour cell line growth inhibition, 48 h

compound=c1ccc2c(c1)nc1n2CSC1 observed="> 100 µM"
compound="O=P1(Oc2ccc(Cl)cc2)OCCS1 (stereo unspecified)" observed="> 100 µM"
compound="O=C1C2CCC(C2)C12CC1(c3ccccc3)C(=O)c3ccccc3N1O2 (stereo unspecified)" observed="> 100 µM"
compound=O=c1c2cc(Br)cc(Br)c2[nH]c(=S)n1-c1ccccc1 observed="> 100 µM"
compound="C/C(=N/NC(=O)C(N)=O)C(CC(C(=O)Nc1ccccc1C)/C(C)=N\\NC(=O)C(N)=O)C(=O)Nc1ccccc1C (stereo unspecified)" observed="> 100 µM"

Ask: For CCRF-CEM leukemia, provide TGI of Cc1nc2ccccc2c(=O)n1NC(=O)c1ccccc1O please.
Reply: > 100 µM

Ask: Now the compound Cc1c(CCCl)c(N=[N+]=[N-])n2c(nc3ccccc32)c1C#N
Reply: 0.987 µM

Ask: Another: C#COc1cccc(Nc2ncnc3ncc(NC(=O)CCl)cc23)c1
Reply: > 62.5 µM

Ask: Also COC(=O)C(Cc1ccccc1I)C1=CCC2(CC1)OCCO2 (stereo unspecified) , if possible.
Reply: 81 µM

Ask: Also O=C1NC(=O)C(C(c2ccc(Cl)cc2)C2C(=O)NC(=O)NC2=O)C(=O)N1 ?
Reply: > 100 µM

Ask: Same question for O=c1cc(CC(O)(C(F)(F)Cl)C(F)(F)Cl)[nH]n1-c1ccccc1 please.
Reply: > 100 µM

###

Recorded TGI values for a group of molecules are listed next.
Test system: M19-MEL melanoma
Test: NCI tumour cell line growth inhibition, 48 h

molecule=Cc1nc2ccccc2c(=O)n1CC(=O)O tested_target="M19-MEL melanoma" observed="> 100 µM"
molecule=CC1(C)CCc2cc3c(-c4ccccc4)cc(=O)oc3cc2O1 tested_target="M19-MEL melanoma" observed="> 100 µM"
molecule=O=C(O)C#CCO tested_target="M19-MEL melanoma" observed="> 100 µM"
molecule=O=c1c2cc(Br)cc(Br)c2[nH]c(=S)n1-c1ccccc1 tested_target="M19-MEL melanoma" observed="> 100 µM"

Ask: Quick check: TGI of O=C1c2nn(-c3ccccc3)nc2C(c2ccccc2)N1c1ccccc1 (stereo unspecified) ?
Reply: > 100 µM
